# assayText: cytotoxicity (cell viability) in H292 cells
# Type: cell-based
# particulars: human, read-out: CC50 (50% cell viability)
Examples of molecules with documented CC50 at 5 days follow.
Lab book: enter the figure in µg/mL, no units written.

Worked cases, answers included:
>  <molecule>
CC(C)=CCC/C(C)=C/CCC1(C)C=Cc2c(cc(C)c(C(=O)O)c2O)O1 (stereo in doubt) [(−)-DCA]

>  <CC50 at 5 days [µg/mL]>
15.1

$$$$
>  <molecule>
CC(C)=CCC/C(C)=C/CCC1(C)C=Cc2c(cc(C)c(C(=O)O)c2O)O1 (racemic) [1:1 mixture of (+)-DCA with (−)-DCA]

>  <CC50 at 5 days [µg/mL]>
5.9

$$$$

Let us examine a further case.
Recorded CC50 at 5 days (molecule CC(C)=CCC/C(C)=C/CC[C@@]1(C)C=Cc2c(cc(C)c(C(=O)O)c2O)O1 [(+)-DCA] ): 9.27

----------
Collected CC50 at 5 days values appear next to each entry.
# assayText: cytotoxicity (cell viability) in 16HBE cells
# Type: cell-based
# particulars: human, read-out: CC50 (50% cell viability)
Express it in µg/mL; write the number only.

Use these answered entries as a reference point.
>  <compound>
CC(C)=CCC/C(C)=C/CC[C@@]1(C)C=Cc2c(cc(C)c(C(=O)O)c2O)O1 [(+)-DCA]

>  <unitSpec>
µg/mL

>  <CC50 at 5 days>
20.7

$$$$
>  <compound>
CC(C)=CCC/C(C)=C/CCC1(C)C=Cc2c(cc(C)c(C(=O)O)c2O)O1 (stereo in doubt) [(−)-DCA]

>  <unitSpec>
µg/mL

>  <CC50 at 5 days>
35.7

$$$$

Summary for this compound, CC(C)=CCC/C(C)=C/CCC1(C)C=Cc2c(cc(C)c(C(=O)O)c2O)O1 (racemic) [1:1 mixture of (+)-DCA with (−)-DCA] : CC50 at 5 days is 8.2
